- Tested on: Echinochloa crus-galli (ECHCG)
- assayDetails: Glasshouse assay for herbicidal activity, pre-/post-emergence (percentage phytotoxicity)
- Assay type: in vivo
- runParameters: Echinochloa crus-galli, pre-emergence, 480 h, Rate 250 g/ha; pre-emergence; visual assessment 20 DAA; 100%=total damage, 0%=no damage; read-out: Pre-emergence herbicidal activity (percentage phytotoxicity), ECHCG PRE
Label TRUE when pest or weed control at 250 g/ha >= 90%; otherwise FALSE.

>>> df
                                   compound  classification
0  Cc1cc(-c2ncc(Cl)cc2F)cc(C)c1C1C(=O)CC(CCNC(=O)C2=NOC(C)(C)C2)C1=O (stereo not drawn) [Compound A117]           FALSE
1  COc1ccc(C(=O)NC(=O)NCCC2CC(=O)C(c3c(C)cc(C)cc3C)C2=O)cc1 (stereo not drawn) [Compound A57]            TRUE
2  Cc1cc(C)c(C2C(=O)CC(CCNC(=O)Nc3ccccn3)C2=O)c(C)c1.Cl (stereo not drawn) [Compound A3]            TRUE
3  Cc1cc(C)c(C2C(=O)CC(CCNC(=O)NC(=O)c3ccc(Cl)cc3F)C2=O)c(C)c1 (stereo not drawn) [Compound A59]            TRUE
4  CON=C(C)C(=O)NCCC1CC(=O)C(c2c(C)cc(-n3cc(Cl)cn3)cc2C)C1=O (stereo not drawn) [Compound A38]            TRUE
5  CNC(=O)NCCC1CC(=O)C(c2c(C)cc(C)cc2C)C1=O (stereo not drawn) [Compound A94]           FALSE
6  Cc1cc(C)c(C2C(=O)CC(CCNC(=O)NC(=O)c3ccc(F)c(F)c3)C2=O)c(C)c1 (stereo not drawn) [Compound A56]           FALSE
7  Cc1cc(C)c(C2C(=O)CC(CCNS(=O)(=O)c3ccc(C(F)(F)F)cc3)C2=O)c(C)c1 (stereo not drawn) [Compound A74]           FALSE
8  Cc1cc(C)c(C2C(=O)CC(CCNc3ncc(F)cn3)C2=O)c(C)c1 (stereo not drawn) [Compound A121]            TRUE
